All figures here come from paper PMC5540273.

Test system: SLK;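 further: kd values determined as follow-up on hits from a single-replicate KINOMEscan panel screen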
OUTCOME MEASURE: Kd (nM)
Give bare numbers, in nM.

Lookup: Which Kd value is on record for COc1cc2ncn(-c3cc(OCc4ccncc4Br)c(C(N)=O)s3)c2cc1OC ?
Found: 680

* * *

For each entry below, report its %Inh value.
Tested on: INSRR;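 further: KINOMEscan kinase panel screen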
CONDITION PARAMETERS: concentration: 1 μM, replicates: in singlicate; n = 1
One number for each entry, in %.

Items follow; give %Inh for each.
1. COc1cc(Nc2ccnc3ccc(C(F)(F)F)cc23)cc(OC)c1OC [GW577382]
2. CCC(=O)c1c(-c2ccccc2)c2cc(Cl)ccc2c(=O)n1Cc1cc(S(C)(=O)=O)n(CC(N)=O)n1
3. O=C1NC(=O)C(c2ccccc2)=C1Nc1cccc(O)c1 [SB-390534]
4. CCC(=O)c1c(-c2ccccc2)c2cc(Cl)ccc2c(=O)n1Cc1cc(S(C)(=O)=O)n(CCC(C)(C)O)n1

Found:
1: 4; 2: 0; 3: 15; 4: 10
